EXPERIMENTAL TARGET: T1, recombinant fibronectin domain ED-B (His)6 (human, UniProt P02751 1266-1356)
T1 construct: domain: ED-B; Produced by standard procedures; immobilised on ELISA plates or on the BIAcore chip; also called recombinant ED-B; human ED-B
PROTOCOL SUMMARY: SPR (BIAcore), ED-B immobilised on chip (about 100 RU), Fab in flow
What kon was measured for each of the following?
One number for each entry, in M⁻¹ s⁻¹.

| BINDER | TEST READOUT | MEASURED RESULT |
| --- | --- | --- |
| MOR03245 (Fab, V domains shown, Fab, H-CDR2 derivative of MOR03069) VH: QVQLQESGPGLVKPGETLSLTCTVSGGSISSYYWSWIRQAPGKGLEWIGVIHKWGFTNYNPSLKSRVTISVDTSKNQFSLKLSSVTAADTAVYYCARFFDVWGQGTLVTVSS VL: DIVLTQPPSVSGAPGQRVTISCSGSSSNIGSNTVRWYQQLPGTAPKLLIYSNNKRPSGVPDRFSGSKSGTSASLAITGLQSEDEADYYCWTGMSYHFVFGGGTKLTVLG | kon | 3.5e+06 |

**Query** Return reported kon. Input binder: MOR03243 (Fab, V domains shown, Fab, H-CDR2 derivative of MOR03055) VH: QVQLQESGPGLVKPGETLSLTCTVSGGSISSYYWSWIRQAPGKGLEWIGEIHRGGYTQYNPSLKSRVTISVDTSKNQFSLKLSSVTAADTAVYYCARFFDVWGQGTLVTVSS VL: DIVLTQPPSVSGAPGQRVTISCSGSSSNIGSNTVRWYQQLPGTAPKLLIYSNNKRPSGVPDRFSGSKSGTSASLAITGLQSEDEADYYCQAWTRAHRYPVFGGGTKLTVLG
**Result** 2.9e+06
